- subject_of_test: Luciferin 4-monooxygenase (Photinus pyralis) (UniProt P08659)
- Sequence (P08659 whole entry, looked up): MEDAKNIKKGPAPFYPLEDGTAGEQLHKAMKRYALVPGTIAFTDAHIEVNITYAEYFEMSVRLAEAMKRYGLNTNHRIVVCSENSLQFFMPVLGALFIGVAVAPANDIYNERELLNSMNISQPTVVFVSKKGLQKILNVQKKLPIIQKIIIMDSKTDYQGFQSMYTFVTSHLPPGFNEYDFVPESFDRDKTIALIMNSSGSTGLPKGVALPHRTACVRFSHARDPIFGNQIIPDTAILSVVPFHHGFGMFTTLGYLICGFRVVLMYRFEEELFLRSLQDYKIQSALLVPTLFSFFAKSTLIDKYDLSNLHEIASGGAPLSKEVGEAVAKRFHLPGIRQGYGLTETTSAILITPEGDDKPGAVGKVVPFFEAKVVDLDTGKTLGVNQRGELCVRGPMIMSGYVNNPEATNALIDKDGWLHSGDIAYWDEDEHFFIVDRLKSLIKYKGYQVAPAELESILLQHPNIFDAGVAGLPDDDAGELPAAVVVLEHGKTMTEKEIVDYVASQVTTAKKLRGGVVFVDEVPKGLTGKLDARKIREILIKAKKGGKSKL
- protocol: firefly luciferase enzyme inhibitors, primary screen, biochemical, luminescence, purified enzyme, 2006 set (AID 1141);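 also: cell-free assay with purified firefly luciferase at 100 ng per well in PBS; test concentration not given here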
- details: SteadyGlo luminescence, 30 min, higher = more signal, called active from +8 up or from −8 down
For each entry below, report its z-score value.
Lab note: jot the number down without any unit.

(Q) Read off the recorded z-score for CCCCN1CC=CC23O[C@@H]4/C=C\CCCOC(=O)C4[C@H]2C(=O)N(CCCCCCO)[C@@H]3C1=O (stereo partly drawn)
(A) -0.0067

(Q) Read off the recorded z-score for C[N+](C)(C)CCCC[C@@H]1NC(=O)[C@H]2C[C@@H](C(=O)O)[C@@H](c3ccc(O)cc3)N2C1=O
(A) -1.93

(Q) Read off the recorded z-score for COC(=O)C(CC#Cc1ccc2c(c1)[C@]1(C(=O)N2)[C@H](c2ccccc2OCCO)N2[C@H](c3ccccc3)[C@H](c3ccccc3)OC(=O)[C@H]2[C@@H]1C(=O)N1CCN(c2ncccn2)CC1)C(=O)OC
(A) -0.186

(Q) Read off the recorded z-score for COc1ccc([Si](C)(C)[C@@H]2[C@@H](CC(=O)N3CCC[C@H]3CO)O[C@]3(C(=O)N(Cc4cccc(N5C(=O)c6cccc7cccc5c67)c4)c4ccccc43)[C@H]2C)cc1
(A) -0.0921

(Q) Read off the recorded z-score for C=CCNC(=O)[C@H]1[C@@H]2C(=O)O[C@@H](c3ccccc3)[C@@H](c3ccccc3)N2[C@@H](c2ccc(OCCO)cc2)[C@]12C(=O)N(C(=O)OCCOC)c1ccc(C#CCC(C(=O)OC)C(=O)OC)cc12
(A) -0.515

(Q) Read off the recorded z-score for COc1ccc(C(=O)Nc2cccc(CN3C(=O)[C@]4(O[C@H](CC(=O)N(CCO)Cc5ccccc5)[C@@H]([Si](C)(C)c5ccc(OC)cc5)[C@@H]4C)c4ccccc43)c2)cc1
(A) -0.881

(Q) Read off the recorded z-score for C=C(CCCC)C(=O)CC[C@@H](OC(C)=O)c1ccc(OCCO)cc1
(A) -1.4

(Q) Read off the recorded z-score for COc1ccc(C(O)C2C=CC3C(=O)N(C)C(=O)C3N2Nc2ccccc2)cc1 (stereo not drawn)
(A) -1.17

(Q) Read off the recorded z-score for COc1ccc([Si](C)(C)[C@H]2[C@H](CC(=O)N3CCC[C@H]3CO)O[C@@]3(C(=O)N(Cc4cccc(N5CCCCC5=O)c4)c4ccccc43)[C@@H]2C)cc1
(A) -1.5

(Q) Read off the recorded z-score for Cc1ccc(N2C(=O)c3ccccc3[C@@H](C(=O)NCCN3CCOCC3)[C@@H]2c2ccc(CO)cc2)nc1
(A) 1.09

(Q) Read off the recorded z-score for COc1ccc([Si](C)(C)[C@H]2[C@H](CC(=O)N3CCC[C@H]3CO)O[C@@]3(C(=O)N(C)c4c(Br)cc(C)cc43)[C@@H]2C)cc1
(A) 0.395

(Q) Read off the recorded z-score for CN(C)C(=O)[C@]1(CCS(=O)(=O)c2ccccc2)N=C(c2ccc(OCCCO)cc2)O[C@@H]1c1ccccc1CN=[N+]=[N-]
(A) -0.345

(Q) Read off the recorded z-score for [N-]=[N+]=NCc1ccccc1C[C@]1(C(=O)N2CCCCC2)COC(c2ccc(OCCCO)cc2)=N1
(A) -1.71

(Q) Read off the recorded z-score for COc1cc(Cc2cc3c(c(CCc4ccccc4)n2)[Si](C(C)C)(C(C)C)O[C@H]3c2ccccc2)cc(OC)c1OC
(A) -0.0946

(Q) Read off the recorded z-score for COc1cccc(C)c1NC(=O)O[C@H]1[C@H](OC(=O)Nc2ccc3c(c2)OCO3)[C@H](OC(=O)Nc2ccc3c(c2)OCO3)[C@@H](OC)O[C@@H]1CO
(A) -6.86

(Q) Read off the recorded z-score for C=CC[C@H](O)c1ccc(O)c(F)c1
(A) -0.857

(Q) Read off the recorded z-score for COc1ccc(C(=O)Nc2ccc(CN3C(=O)[C@]4(O[C@H](CC(=O)N(CCO)Cc5ccccc5)[C@@H]([Si](C)(C)c5ccc(OC)cc5)[C@@H]4C)c4ccccc43)cc2)cc1
(A) 0.505

(Q) Read off the recorded z-score for Cc1ccc(S[C@]2(C(=O)NC(C)C)CC(=O)N(Cc3ccccc3)[C@@H]2c2ccc(CO)cc2)cc1
(A) 0.262

(Q) Read off the recorded z-score for C[C@@]1([C@@H](NS(=O)(=O)c2cccc3cccnc23)c2ccc(-c3ccccc3)cc2)C[C@H]1C1CCCCC1
(A) 1.29

(Q) Read off the recorded z-score for C=CC[C@]12N=C(c3ccc(OCCCO)cc3)O[C@H]1c1ccccc1N(CCC)C2=O
(A) -3.66

(Q) Read off the recorded z-score for [N-]=[N+]=NCc1ccccc1[C@H]1OC(c2ccc(OCCCO)cc2)=N[C@@]1(CCS(=O)(=O)c1ccccc1)C(=O)NCCN1CCOCC1
(A) -3.06

(Q) Read off the recorded z-score for C=CCNC(=O)[C@H]1[C@@H]2C(=O)O[C@@H](c3ccccc3)[C@@H](c3ccccc3)N2[C@@H](c2ccc(O)cc2)[C@]12C(=O)N(C(=O)OCCOC)c1ccc(C#Cc3ccc(OC)cc3)cc12
(A) 0.39

(Q) Read off the recorded z-score for COC(=O)[C@@]1(Cc2ccc(F)cc2)[C@H]2c3cc(C(=O)N4CCCC4)n(CCSCCO)c3C[C@H]2CN1C(=O)c1ccccc1
(A) 0.5

(Q) Read off the recorded z-score for O=C1C2C=CC(C(O)C3CC=CCC3)N(Nc3ccc([N+](=O)[O-])cc3)C2C(=O)N1c1ccccc1 (stereo not drawn)
(A) 0.83

(Q) Read off the recorded z-score for COC(=O)C1=CC(c2ccc(CO)cc2)=CC(C2CC2)N(Cc2cc3c(cc2Br)OCO3)C=C1C(=O)OC (stereo not drawn)
(A) -0.817

(Q) Read off the recorded z-score for CN1C(=O)C2C=CC(C(O)COCc3ccccc3)N(Nc3ccc([N+](=O)[O-])cc3[N+](=O)[O-])C2C1=O (stereo not drawn)
(A) -1.05

(Q) Read off the recorded z-score for COC(=O)[C@@]1(Cc2ccc(F)cc2)[C@H]2c3cc(C(=O)N4CCCC4)n(C[C@H](O)CO)c3C[C@H]2CN1C(=O)c1ccccc1
(A) 2.19

(Q) Read off the recorded z-score for COc1ccc(CCNC(=O)[C@@H]2c3ccccc3C(=O)N(Cc3cc(F)cc(C(F)(F)F)c3)[C@H]2c2ccc(CO)cc2)cc1
(A) -1.13
